target: LDT5 (Mycobacterium abscessus); assay: Steady-state kinetics with nitrocefin (Ki,app); type: biochemical; details: in parentheses in Table 3
Below, each of the molecules is paired with its reported Ratio of fCss,avg to Ki,app, LDT5 value.
Measured quantity: Ratio of fCss,avg to Ki,app, LDT5

1) CO/N=C(\C(=O)N[C@@H]1C(=O)N2C(C(=O)O)=C(COC(N)=O)CS[C@H]12)c1ccco1
7.5
2) C[C@@H](O)[C@H]1C(=O)N2C(C(=O)O)=C(SCCN=CN)C[C@H]12
0.4
3) C[C@@H](O)[C@H]1C(=O)N2C(C(=O)O)=C(S[C@H]3CC[S@@+]([O-])C3)S[C@H]12
1.5
4) CC1=C[C@@H]2CN(C(=O)N2OS(=O)(=O)O)[C@@H]1C(N)=O
145
5) CCO/N=C(\C(=O)N[C@@H]1C(=O)N2C(C(=O)[O-])=C(Sc3nc(-c4cc[n+](C)cc4)cs3)CS[C@H]12)c1nsc(N)n1
0.1

---

biological target: LDT1 (Mycobacterium abscessus, UniProt B1MDC1); experiment: Steady-state kinetics with nitrocefin (Ki,app); assay type: biochemical; conditions: Ki,app LDT1, nitrocefin at 5 × Km
Sequence (B1MDC1 entry or part of it): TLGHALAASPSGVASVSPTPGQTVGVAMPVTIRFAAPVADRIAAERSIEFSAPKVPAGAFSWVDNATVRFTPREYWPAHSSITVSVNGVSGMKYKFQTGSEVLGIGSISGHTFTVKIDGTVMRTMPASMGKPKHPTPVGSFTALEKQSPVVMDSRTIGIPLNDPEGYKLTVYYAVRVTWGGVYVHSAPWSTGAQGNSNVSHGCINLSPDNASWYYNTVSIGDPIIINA
pKi: −log10 of the molar value.
Measured quantity: pKi

1. C[C@@H](O)[C@H]1C(=O)N2C(C(=O)O)=C(SC3CN(C4=NCCS4)C3)[C@H](C)[C@H]12 [Tebipenem, tebipenem]
5.31
2. CC1=C[C@@H]2CN(C(=O)N2OS(=O)(=O)O)[C@@H]1C(N)=O [Durlobactam, durlobactam]
3.38
3. C[C@@H](O)[C@H]1C(=O)N2C(C(=O)O)=C(SCCN=CN)C[C@H]12 [Imipenem, imipenem]
8.18
4. NC(=O)[C@@H]1CC[C@@H]2CN1C(=O)N2OS(=O)(=O)O [Avibactam, avibactam]
4.58

---

test system: Mab ATCC 19977 strain; assay: MIC testing (CLSI, Middlebrook 7H9 broth); type: cell-based, Mycobacterium abscessus; conditions: fixed avibactam 4 mg/L
Below, each of the compounds is paired with its reported MIC, + AVI (4 mg/L) value.
Measured quantity: MIC, + AVI (4 mg/L) (µg/mL)

1) C[C@@H](O)[C@H]1C(=O)N2C(C(=O)O)=C(SC3CN(C4=NCCS4)C3)[C@H](C)[C@H]12 [Tebipenem, tebipenem]
2
2) C[C@@H](O)[C@H]1C(=O)N2C(C(=O)O)=C(S[C@H]3CC[S@@+]([O-])C3)S[C@H]12 [Sulopenem, sulopenem]
0.5
3) CC1(C)S[C@@H]2[C@H](NC(=O)[C@H](N)c3ccc(O)cc3)C(=O)N2[C@H]1C(=O)O [Amoxicillin, amoxicillin]
32
4) C[C@@H](O)[C@H]1C(=O)N2C(C(=O)O)=C(SCCN=CN)C[C@H]12 [Imipenem, imipenem]
4
5) CO/N=C(\C(=O)N[C@@H]1C(=O)N2C(C(=O)O)=C(COC(N)=O)CS[C@H]12)c1ccco1 [Cefuroxime, cefuroxime]
4

---

biological target: LDT5 (Mycobacterium abscessus, UniProt B1MM58); assay: Mass spectrometry of covalent adduct formation; assay type: binding; details: protein:drug 1:20, 2 h; mass accuracy ±5 Da; (−) = no change
Sequence (B1MM58 entry or part of it): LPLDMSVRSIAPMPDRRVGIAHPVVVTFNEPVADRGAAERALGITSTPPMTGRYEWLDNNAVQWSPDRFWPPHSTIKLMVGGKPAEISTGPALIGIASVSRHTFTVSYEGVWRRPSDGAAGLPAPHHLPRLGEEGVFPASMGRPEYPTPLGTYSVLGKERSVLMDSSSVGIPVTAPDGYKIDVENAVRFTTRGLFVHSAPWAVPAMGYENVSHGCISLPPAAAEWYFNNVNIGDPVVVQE
Below, each of the molecules is paired with its reported Observed MW (+ change in mw), LDT5 (28,220) value.
Measured quantity: Observed MW (+ change in mw), LDT5 (28,220)

1. CC1=C[C@@H]2CN(C(=O)N2OS(=O)(=O)O)[C@@H]1C(N)=O [Durlobactam, durlobactam]
28,496 (+276) Da
2. C[C@@H](O)[C@H]1C(=O)N2C(C(=O)O)=C(SC3CN(C4=NCCS4)C3)[C@H](C)[C@H]12 [Tebipenem, tebipenem]
28,220 (−) Da
3. C[C@@H](O)[C@H]1C(=O)N2C(C(=O)O)=C(S[C@H]3CC[S@@+]([O-])C3)S[C@H]12 [Sulopenem, sulopenem]
28,306 (+86) Da
4. CC1(C)S[C@@H]2[C@H](NC(=O)[C@H](N)c3ccc(O)cc3)C(=O)N2[C@H]1C(=O)O [Amoxicillin, amoxicillin]
28,220 (−) Da
5. NC(=O)[C@@H]1CC[C@@H]2CN1C(=O)N2OS(=O)(=O)O [Avibactam, avibactam]
28,220 (−) Da
